Molecular target: KRAS G12C (Homo sapiens (Human), UniProt P01116+P62937, G12C)
Sequence (P01116-2 other isoform, or with tags, fused parts or gaps G12C): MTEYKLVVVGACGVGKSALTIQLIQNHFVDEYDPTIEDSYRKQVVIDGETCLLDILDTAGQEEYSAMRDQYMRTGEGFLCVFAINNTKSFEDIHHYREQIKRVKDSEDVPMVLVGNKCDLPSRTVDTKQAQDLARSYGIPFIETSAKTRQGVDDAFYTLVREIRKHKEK
Sequence (P62937 whole entry): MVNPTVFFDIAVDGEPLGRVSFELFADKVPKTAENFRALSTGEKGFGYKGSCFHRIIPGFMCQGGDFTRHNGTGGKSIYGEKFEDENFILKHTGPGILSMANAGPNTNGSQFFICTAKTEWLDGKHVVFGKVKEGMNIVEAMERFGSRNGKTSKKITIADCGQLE
Assay: Ras-Raf disruption/FRET/MOA assay, KRAS G12C
Assay type: biochemical
pIC50: −log10 of the molar value.
Documented pIC50 across a set of compounds

{"COMPOUND": "CCn1c(-c2cnccc2COC)c2c3cc(ccc31)-c1cc(O)cc(c1)C[C@H](NC(=O)[C@H](C(C)C)N(C)C(=O)CN(C)C(=O)[C@@H]1N[C@H]1c1ccccc1)C(=O)N1CCC[C@H](N1)C(=O)OCC(C)(C)C2", "pIC50": "7.00 to 8.00"}
{"COMPOUND": "CCn1c(-c2cccnc2[C@H](C)OC)c2c3cc(ccc31)-c1cc(O)cc(c1)C[C@H](NC(=O)[C@H](C(C)C)N(C)C(=O)[C@@H]1CO[C@H](C)CN1C(=O)[C@@H]1CN1)C(=O)N1CCC[C@H](N1)C(=O)OCC(C)(C)C2", "pIC50": "> 8.00"}
{"COMPOUND": "CCn1c(-c2cccnc2[C@H](C)OC)c2c3cc(ccc31)-c1cc(O)cc(c1)C[C@H](NC(=O)[C@@H](C(C)C)N(C)C(=O)[C@@]1(C)CCCN1C(=O)[C@@H]1CN1)C(=O)N1CCC[C@H](N1)C(=O)OCC(C)(C)C2", "pIC50": "6.00 to 7.00"}
{"COMPOUND": "CCn1c(-c2cnccc2COC)c2c3cc(ccc31)-c1cc(O)cc(c1)C[C@H](NC(=O)[C@H](C(C)C)N(C)C(=O)CN(C)C(=O)[C@@H]1N[C@@H]1C1CC1)C(=O)N1CCC[C@H](N1)C(=O)OCC(C)(C)C2", "pIC50": "7.00 to 8.00"}
